Hey, just so you know, these numbers are from paper PMC8529873.

test system: MRC-5 human nonmalignant lung cells; experiment: MTT cytotoxicity assay, 48 h, MRC-5 cells; type: cell-based; conditions: read-out: IC50 (mean ± SEM) MRC-5 (normal)
measurement.label: IC50 (µM)

{"columns": ["molecule", "measurement.label", "reading"],
 "data": [
  ["N.N.[Cl][Pt][Cl] [Cisplatin]", "IC50", 99.2]
]}

----------
system: AN3Ca (endometrial adenocarcinoma); assay: Resazurin cell viability assay, 96 h, AN3Ca; assay type: cell-based, human; details: Resazurin assay, read-out: IC50 (mean ± SEM) AN3Ca
pIC50: −log10 of the molar value.

{"columns": ["molecule", "pIC50"],
 "data": [
  ["N.N.[Cl][Pt][Cl] [Cisplatin]", 5.74]
]}
